Reported MIC values, Escherichia coli K-12 LA 290 R55.
Answers are plain numbers, in µg/mL.

{"compound": "CNC[C@@H]1CC[C@@H](N)[C@@H](O[C@H]2C[C@@H](O[C@H]3O[C@H](CO)[C@@H](O)[C@H](N)[C@H]3O)[C@H](NC(=O)C(O)CN)C[C@@H]2N)O1 (stereo partly shown) [AHP-trideoxyMKMB]", "target-entity": "Escherichia coli K-12 LA 290 R55", "MIC [µg/mL]": 6.25}
{"compound": "CNC[C@@H]1CC[C@@H](N)[C@@H](O[C@H]2C[C@@H](O[C@H]3O[C@H](CO)[C@@H](O)[C@H](N)[C@H]3O)[C@H](N)C[C@@H]2N)O1 [TrideoxyMKMB, 5,3',4'-trideoxy-6'-N-methylkanamycin B]", "target-entity": "Escherichia coli K-12 LA 290 R55", "MIC [µg/mL]": 100}
{"compound": "NCC[C@H](O)C(=O)N[C@@H]1C[C@H](N)[C@@H](O[C@H]2O[C@H](CN)CC[C@H]2N)C[C@H]1O[C@H]1O[C@H](CO)[C@@H](O)[C@H](N)[C@H]1O [AHB-trideoxyKMB]", "target-entity": "Escherichia coli K-12 LA 290 R55", "MIC [µg/mL]": 3.13}

Lab note: next compound to report on.
input: Tell me measured MIC for NCC(O)C(=O)N[C@@H]1C[C@H](N)[C@@H](O[C@H]2O[C@H](CN)CC[C@H]2N)C[C@H]1O[C@H]1O[C@H](CO)[C@@H](O)[C@H](N)[C@H]1O (stereo partly shown) [AHP-trideoxyKMB] please.
output: 3.13
